MEASURED TARGET: full length N-terminally FLAG-tagged PARP1 (Homo sapiens)
Sequence (P09874 whole entry): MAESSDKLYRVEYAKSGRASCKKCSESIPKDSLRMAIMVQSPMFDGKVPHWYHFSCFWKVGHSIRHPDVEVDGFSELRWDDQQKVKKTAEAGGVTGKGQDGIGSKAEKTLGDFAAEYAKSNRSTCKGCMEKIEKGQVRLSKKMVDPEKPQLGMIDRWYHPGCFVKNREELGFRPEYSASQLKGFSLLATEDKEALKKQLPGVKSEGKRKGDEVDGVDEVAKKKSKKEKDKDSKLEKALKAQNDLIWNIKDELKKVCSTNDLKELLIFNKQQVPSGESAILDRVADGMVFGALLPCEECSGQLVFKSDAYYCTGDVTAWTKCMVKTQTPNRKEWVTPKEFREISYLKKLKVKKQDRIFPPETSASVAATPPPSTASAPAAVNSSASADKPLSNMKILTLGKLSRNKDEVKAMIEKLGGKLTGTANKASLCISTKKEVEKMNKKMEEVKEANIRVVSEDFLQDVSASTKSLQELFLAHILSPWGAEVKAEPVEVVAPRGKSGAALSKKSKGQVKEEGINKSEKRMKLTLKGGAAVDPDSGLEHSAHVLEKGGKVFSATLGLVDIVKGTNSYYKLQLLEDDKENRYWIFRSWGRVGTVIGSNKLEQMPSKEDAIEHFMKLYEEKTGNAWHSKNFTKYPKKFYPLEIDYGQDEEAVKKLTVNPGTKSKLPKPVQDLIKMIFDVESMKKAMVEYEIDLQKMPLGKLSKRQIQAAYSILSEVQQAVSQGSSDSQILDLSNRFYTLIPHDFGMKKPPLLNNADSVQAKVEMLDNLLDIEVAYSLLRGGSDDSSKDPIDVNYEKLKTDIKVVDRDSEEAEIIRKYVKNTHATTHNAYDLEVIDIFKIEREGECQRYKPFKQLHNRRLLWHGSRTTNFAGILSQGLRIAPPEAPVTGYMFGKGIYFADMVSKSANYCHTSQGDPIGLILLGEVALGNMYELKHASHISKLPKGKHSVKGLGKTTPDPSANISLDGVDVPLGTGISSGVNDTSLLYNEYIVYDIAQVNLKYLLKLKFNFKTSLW
PROTOCOL NOTES: PARP1 probe displacement HTRF assay
CONDITION SUMMARY: read-out: PARP1 HTRF; binned Kd, probe displacement HTRF
pKd: −log10 of the molar value.
READOUT TYPE: pKd

{"columns": ["COMPOUND", "pKd"],
 "data": [
  ["CNC(=O)c1ccc(N2CCC(N3CCC(c4cc5c(F)ccc(F)c5c(=O)[nH]4)C3)CC2)c(F)n1 (single isomer, unassigned) [Compound 323b]", "> 8.00"],
  ["CNC(=O)c1ccc(N2CCC(N3CCC(c4nc5c(c(=O)[nH]4)CN(C)C5)C3)CC2)cn1 (racemic) [Compound 294rac]", "6.00 to 7.00"]
]}

// below: pKd requested for another compound
Given the compound CNC(=O)c1ccc(N2CCC(N3CCC(c4cc5c(c(=O)[nH]4)CCCN5)C3)CC2)cn1 (racemic) [Compound 233rac] and test system full length N-terminally FLAG-tagged PARP1 (Homo sapiens), the measured pKd is > 8.00
